- tested_target: CYP3A4 (Homo sapiens)
- Sequence (P08684 whole entry): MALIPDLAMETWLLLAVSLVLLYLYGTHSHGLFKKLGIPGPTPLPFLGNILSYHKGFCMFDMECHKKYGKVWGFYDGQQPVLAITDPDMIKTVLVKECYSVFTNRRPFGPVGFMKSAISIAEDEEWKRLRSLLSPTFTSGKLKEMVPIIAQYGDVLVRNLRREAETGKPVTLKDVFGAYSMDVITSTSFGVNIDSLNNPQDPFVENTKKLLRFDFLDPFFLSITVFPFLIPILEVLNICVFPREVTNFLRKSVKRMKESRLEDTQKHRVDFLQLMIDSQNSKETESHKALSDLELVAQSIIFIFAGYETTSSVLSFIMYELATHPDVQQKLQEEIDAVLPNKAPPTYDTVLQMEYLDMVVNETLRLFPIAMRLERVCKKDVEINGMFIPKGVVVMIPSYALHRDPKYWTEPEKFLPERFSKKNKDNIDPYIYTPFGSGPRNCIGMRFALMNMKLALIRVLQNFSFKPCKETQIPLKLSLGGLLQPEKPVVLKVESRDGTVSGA
- protocol_text: in vitro
- assay_context: CYP3A4 (% inhibition)
recorded_metric: inhibition at 30 min, 10 µM (%)
# unit: % | format: bare number

// below: answered molecules
{"columns": ["molecule", "inhibition at 30 min, 10 µM [%]"],
 "data": [
  ["COc1c(C)cc2c(c1O)[C@@H]1C3[C@@H]4SC[C@]5(NCCc6c5[nH]c5ccc(O)cc65)C(=O)COC[C@@H](c5c6c(c(C)c(OC(C)=O)c54)OCO6)N3[C@@H](O)[C@H](C2)N1C (stereo partly drawn)", 84],
  ["COc1c(C)cc2c(c1O)[C@@H]1C3[C@@H]4SC[C@]5(NCCc6c5[nH]c5c(OCc7ccccc7)cccc65)C(=O)COC[C@@H](c5c6c(c(C)c(OC(C)=O)c54)OCO6)N3[C@@H](O)[C@H](C2)N1C (stereo partly drawn)", 79],
  ["COc1ccc2[nH]c3c(c2c1)CCN[C@]31CS[C@@H]2c3c(OC(C)=O)c(C)c4c(c3[C@H](COCC1=O)N1C2[C@H]2c3c(cc(C)c(OC)c3O)C[C@@H]([C@@H]1O)N2C)OCO4 (stereo partly drawn)", 53],
  ["COc1ccc2c3c([nH]c2c1)[C@@]1(CS[C@@H]2c4c(OC(C)=O)c(C)c5c(c4[C@H](COCC1=O)N1C2[C@H]2c4c(cc(C)c(OC)c4O)C[C@@H]([C@@H]1O)N2C)OCO5)NCC3 (stereo partly drawn)", 80],
  ["COc1c(C)cc2c(c1OC(=O)OC(C)(C)C)[C@@H]1C3[C@@H]4SC[C@]5(NCCc6c5[nH]c5ccccc65)C(=O)COC[C@@H](c5c6c(c(C)c(OC(C)=O)c54)OCO6)N3[C@@H](O)[C@H](C2)N1C (stereo partly drawn)", 60]
]}

I would be grateful if you could share the reported inhibition at 30 min, 10 µM for COc1c(C)cc2c(c1O)[C@@H]1C3[C@@H]4SC[C@]5(NCCc6c5[nH]c5cc(F)ccc65)C(=O)COC[C@@H](c5c6c(c(C)c(OC(C)=O)c54)OCO6)N3[C@@H](O)[C@H](C2)N1C (stereo partly drawn) .
83

I would be grateful if you could share the reported inhibition at 30 min, 10 µM for COc1c(C)cc2c(c1O)[C@@H]1C3[C@@H]4SC[C@]5(C(=O)COC[C@@H](c6c7c(c(C)c(OC(C)=O)c64)OCO7)N3[C@@H](O)[C@H](C2)N1C)c1[nH]c2ccc(O)cc2c1CCN5C (stereo partly drawn) .
84

I would be grateful if you could share the reported inhibition at 30 min, 10 µM for COc1c(C)cc2c(c1O)[C@@H]1C3[C@@H]4SC[C@]5(NCCc6c5[nH]c5ccc(C)cc65)C(=O)COC[C@@H](c5c6c(c(C)c(OC(C)=O)c54)OCO6)N3[C@@H](O)[C@H](C2)N1C (stereo partly drawn) .
25

I would be grateful if you could share the reported inhibition at 30 min, 10 µM for COc1c(C)cc2c(c1O)[C@@H]1C3[C@@H]4SC[C@]5(NCCc6c5[nH]c5c(C)cccc65)C(=O)COC[C@@H](c5c6c(c(C)c(OC(C)=O)c54)OCO6)N3[C@@H](O)[C@H](C2)N1C (stereo partly drawn) .
78
